Listing: FLuc Parameters Hill Coef of selected compounds
# tested-system: firefly luciferase, Photinus pyralis (FLuc) (Photinus pyralis, UniProt P08659)
# Sequence (P08659 whole entry): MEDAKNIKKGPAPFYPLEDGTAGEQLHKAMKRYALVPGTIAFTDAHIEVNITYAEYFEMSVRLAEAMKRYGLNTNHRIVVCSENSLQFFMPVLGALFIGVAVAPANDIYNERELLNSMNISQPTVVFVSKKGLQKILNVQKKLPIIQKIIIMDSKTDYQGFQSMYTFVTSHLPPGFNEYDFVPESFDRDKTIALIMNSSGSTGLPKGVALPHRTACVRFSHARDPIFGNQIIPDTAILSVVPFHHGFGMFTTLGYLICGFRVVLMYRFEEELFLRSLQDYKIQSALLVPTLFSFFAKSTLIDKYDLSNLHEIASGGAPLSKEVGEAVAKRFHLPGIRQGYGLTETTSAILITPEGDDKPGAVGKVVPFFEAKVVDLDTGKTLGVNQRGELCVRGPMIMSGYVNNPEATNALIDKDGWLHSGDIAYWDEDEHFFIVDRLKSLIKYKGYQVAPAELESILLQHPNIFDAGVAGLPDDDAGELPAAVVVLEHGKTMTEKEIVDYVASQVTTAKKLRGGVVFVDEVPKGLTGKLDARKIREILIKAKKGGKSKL
# assay-procedure: biochemical
# Assay type: biochemical
# test-conditions: Hill equation fit of CRC
experimental-readout: FLuc Parameters Hill Coef

| compound | measured |
| --- | --- |
| O=C1Nc2ccccc2/C1=C/Nc1ccc2[nH]c(=O)[nH]c2c1 [GW284408X] | 1.93 |
| NC(=O)c1cccc(Nc2nccc(Nc3cccc(F)c3)n2)c1 [GW759710A] | 1.21 |
| N#Cc1c(NC(=O)c2ccc(F)cc2)sc2c1CCCC2 [SB-347804] | 1.48 |
| COc1cc(Nc2ncc(-c3ccccc3)o2)cc(OC)c1 [GW631581B] | 1.29 |
| c1cc(-c2cnn3nc(N4CCOCC4)ccc23)nc(NC2CC2)n1 [GW708336X] | 1 |
| CN(c1ccc(NC(=O)Nc2c(Cl)cccc2Cl)cc1)c1ccnc(Nc2cccc(CS(C)(=O)=O)c2)n1 [GW809897X] | 1.11 |
| COc1ccccc1Nc1ncc(-c2ccccc2)o1 [GW577921A] | 1 |
| COC(=O)Nc1nc2ccc(Oc3ccc(NC(=O)Nc4cccc(C(=O)O)c4)cc3)cc2[nH]1 [GW701427A] | 1.69 |
| c1ccc(Nc2ncc(-c3ccccc3)o2)cc1 [GW549390X] | 1.1 |

Data origin: paper PMC3591448
